target: Xanthine oxidase (from bovine milk, Sigma) (Bos taurus (Bovine), UniProt P80457); test: Xanthine oxidase inhibitory activity; format: biochemical; conditions: 0.02 units/mL, xanthine 200 μM, 10 minutes at room temperature, absorbance at 290 nm
Sequence (P80457 whole entry): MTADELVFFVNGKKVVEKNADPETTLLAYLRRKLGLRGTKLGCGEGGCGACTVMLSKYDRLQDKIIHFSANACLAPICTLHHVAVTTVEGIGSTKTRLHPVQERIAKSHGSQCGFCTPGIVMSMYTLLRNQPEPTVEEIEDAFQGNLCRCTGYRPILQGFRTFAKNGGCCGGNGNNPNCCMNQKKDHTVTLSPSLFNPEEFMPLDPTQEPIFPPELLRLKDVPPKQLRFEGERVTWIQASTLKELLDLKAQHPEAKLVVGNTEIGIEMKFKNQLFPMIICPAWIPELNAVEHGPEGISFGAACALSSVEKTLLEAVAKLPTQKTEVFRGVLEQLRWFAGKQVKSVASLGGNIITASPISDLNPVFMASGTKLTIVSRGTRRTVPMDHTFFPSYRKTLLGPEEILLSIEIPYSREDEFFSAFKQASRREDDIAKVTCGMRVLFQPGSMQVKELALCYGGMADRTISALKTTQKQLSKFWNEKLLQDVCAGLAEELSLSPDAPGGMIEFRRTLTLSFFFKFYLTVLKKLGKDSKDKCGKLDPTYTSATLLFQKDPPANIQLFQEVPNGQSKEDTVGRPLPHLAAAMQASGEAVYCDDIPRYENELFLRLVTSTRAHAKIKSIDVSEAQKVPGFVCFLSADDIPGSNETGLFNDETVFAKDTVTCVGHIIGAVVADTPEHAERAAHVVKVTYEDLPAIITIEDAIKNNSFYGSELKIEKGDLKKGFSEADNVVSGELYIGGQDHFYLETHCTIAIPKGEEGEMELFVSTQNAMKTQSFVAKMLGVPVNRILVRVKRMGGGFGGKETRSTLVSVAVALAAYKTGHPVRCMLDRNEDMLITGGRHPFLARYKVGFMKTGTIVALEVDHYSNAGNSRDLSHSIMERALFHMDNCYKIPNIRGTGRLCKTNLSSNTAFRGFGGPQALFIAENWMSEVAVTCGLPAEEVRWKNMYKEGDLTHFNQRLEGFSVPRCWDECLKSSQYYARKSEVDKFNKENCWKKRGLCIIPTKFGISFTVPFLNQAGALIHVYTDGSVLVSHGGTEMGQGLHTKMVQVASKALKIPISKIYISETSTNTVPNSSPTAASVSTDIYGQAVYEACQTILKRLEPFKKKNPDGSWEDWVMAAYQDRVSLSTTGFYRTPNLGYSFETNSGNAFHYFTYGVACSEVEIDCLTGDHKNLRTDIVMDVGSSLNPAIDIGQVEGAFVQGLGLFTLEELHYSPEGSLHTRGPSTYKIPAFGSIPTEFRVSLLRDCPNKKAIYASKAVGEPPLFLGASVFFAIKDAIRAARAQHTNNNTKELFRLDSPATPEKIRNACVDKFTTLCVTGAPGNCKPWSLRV
Measurement Type: IC50 (nM)

>  <Compound Smiles>
Cc1ccc(COc2cccc(-c3cn(-c4ccc(C(=O)O)cc4)cc3C#N)c2)cc1

>  <IC50 (nM)>
132

$$$$
>  <Compound Smiles>
COc1ccc(-c2cn(-c3ccc(C(=O)O)c(O)c3)cc2C#N)cc1F

>  <IC50 (nM)>
13.3

$$$$
>  <Compound Smiles>
COCCOc1ccccc1-c1cn(-c2ccc(C(=O)O)c(O)c2)cc1C#N

>  <IC50 (nM)>
13.9

$$$$
>  <Compound Smiles>
CCOCCOc1cccc(-c2cn(-c3ccc(C(=O)O)cc3)cc2C#N)c1

>  <IC50 (nM)>
6.7

$$$$
>  <Compound Smiles>
CCCc1cn(-c2ccc(C(=O)O)cc2)cc1C#N

>  <IC50 (nM)>
3.6

$$$$

1. CN(Cc1ccccc1)C(=O)c1cn(-c2ccc(C(=O)O)cc2)cc1C#N
2. CC(C)COc1cn(-c2ccc(C(=O)O)cc2)cc1C#N
3. Cn1cc(-c2cn(-c3ccc(C(=O)O)cc3)cc2C#N)c2ccccc21
4. N#Cc1cn(-c2ccc(C(=O)O)cc2)cc1-c1cccc(OCc2cccc(F)c2)c1
Thanks in advance: please rank these 4 entries by IC50, highest to lowest. To answer, write out the labels according to the requested order.
4, 3, 1, 2

###

target: Xanthine oxidase (from bovine milk, Sigma) (Bos taurus (Bovine)); assay: Xanthine oxidase inhibitory activity; format: biochemical; settings: 100 μM xanthine final, absorbance at 290 nm
pIC50: −log10 of the molar value.
Measurement Type: pIC50

Solved entries (count: 8):
>  <Compound Smiles>
N#Cc1cccc(-c2cn(-c3ccc(C(=O)O)c(O)c3)cc2C#N)c1

>  <Measurement Target>
Xanthine oxidase (from bovine milk, Sigma) (Bos taurus (Bovine))

>  <Recorded Value>
7.70

$$$$
>  <Compound Smiles>
O=C(O)c1ccc(-n2cc(C(=O)O)c(C(F)(F)F)c2)cc1O

>  <Measurement Target>
Xanthine oxidase (from bovine milk, Sigma) (Bos taurus (Bovine))

>  <Recorded Value>
7.72

$$$$
>  <Compound Smiles>
CSc1ccc(-c2cn(-c3ccc(C(=O)O)c(O)c3)cc2C#N)cc1

>  <Measurement Target>
Xanthine oxidase (from bovine milk, Sigma) (Bos taurus (Bovine))

>  <Recorded Value>
7.86

$$$$
>  <Compound Smiles>
Cc1ccsc1-c1cn(-c2ccc(C(=O)O)c(O)c2)cc1C#N

>  <Measurement Target>
Xanthine oxidase (from bovine milk, Sigma) (Bos taurus (Bovine))

>  <Recorded Value>
8.16

$$$$
>  <Compound Smiles>
COc1ccc(-c2cn(-c3ccc(C(=O)O)c(O)c3)cc2C#N)cc1

>  <Measurement Target>
Xanthine oxidase (from bovine milk, Sigma) (Bos taurus (Bovine))

>  <Recorded Value>
8.05

$$$$
>  <Compound Smiles>
N#Cc1cn(-c2ccc(C(=O)O)c(O)c2)cc1-c1ccc(Cl)s1

>  <Measurement Target>
Xanthine oxidase (from bovine milk, Sigma) (Bos taurus (Bovine))

>  <Recorded Value>
8.28

$$$$
>  <Compound Smiles>
N#Cc1cn(-c2cc(C(=O)O)ccn2)cc1C1=CCCCC1

>  <Measurement Target>
Xanthine oxidase (from bovine milk, Sigma) (Bos taurus (Bovine))

>  <Recorded Value>
7.70

$$$$
>  <Compound Smiles>
COc1ccc(-c2cn(-c3ccc(C(=O)O)c(O)c3)cc2C#N)cc1OC

>  <Measurement Target>
Xanthine oxidase (from bovine milk, Sigma) (Bos taurus (Bovine))

>  <Recorded Value>
8.41

$$$$

A. N#Cc1cn(-c2ccc(C(=O)O)c(O)c2)cc1/C=C/c1ccccc1
B. N#Cc1cn(-c2cc(C(=O)O)ccn2)cc1-c1ccccc1Cl
Select the item with the higher value of pIC50 from the options A and B listed. When you have decided, please share the label of that item.
A
(A: 7.98, B: 7.64)

1. N#Cc1cn(-c2ccc(C(=O)O)c(O)c2)cc1-c1cccc(Cl)c1
2. COc1ccc(/C=C/c2cn(-c3ccc(C(=O)O)c(O)c3)cc2C#N)cc1
Field: entry with larger pIC50 (options 1 / 2 ). Indicate which entry you chose by stating its label.
2

P. N#Cc1cn(-c2ccc(C(=O)O)c(O)c2)cc1-c1cccc(OCc2ccccc2)c1
Q. N#Cc1cn(-c2ccc(C(=O)O)c(O)c2)nc1-c1ccccc1
R. N#Cc1cn(-c2ccc(C(=O)O)c(O)c2)cc1-c1ccc(F)cc1
# desc sort on pIC50 across 3 molecules // rank by listing labels in the order requested
Q, R, P

###

target: UniProtKB P80457; experiment: Xanthine oxidase inhibitory activity; assay type: biochemical; conditions: 100 μM xanthine final, absorbance at 290 nm
pIC50: −log10 of the molar value.
Measurement Type: pIC50

I. CCCOc1ccc(-c2cn(-c3ccc(C(=O)O)c(O)c3)cc2C#N)cc1 [Example 342]
II. N#Cc1cn(-c2ccc(C(=O)O)c(O)c2)cc1-c1ccc(Cl)cc1 [Example 315]
When the recorded pIC50 values are compared, which is smaller: that of I or that of II ? Give the label of your selection.
I
(I: 7.44, II: 7.84)

P. N#Cc1cn(-c2ccc(C(=O)O)c(O)c2)cc1-c1cc2ccccc2o1 [Example 290]
Q. N#Cc1cn(-c2ccc(C(=O)O)c(O)c2)cc1-c1ccccc1OCc1ccccc1 [Example 332]
For the two items P and Q , which reports the higher pIC50 value? Indicate which entry you chose by stating its label.
P

P. COc1ccccc1/C=C/c1cn(-c2ccc(C(=O)O)c(O)c2)cc1C#N [Example 293]
Q. CCOc1ccccc1-c1cn(-c2ccc(C(=O)O)c(O)c2)cc1C#N [Example 335]
Smaller pIC50 value? Options are P and Q Reply with the label of the item you choose.
P
(P: 7.80, Q: 8.10)

1. COc1ccccc1-c1cn(-c2cc(C(=O)O)ccn2)cc1C#N [Example 366]
2. CCOc1ccc(-c2cn(-c3ccc(C(=O)O)c(O)c3)cc2C#N)cc1 [Example 340]
Just curious, which one has the larger pIC50 reading, 1 or 2 ? Could you answer with the label of the item you picked?
2
(2: 8.24, 1: 7.53)

###

Molecular target: Xanthine oxidase (from bovine milk, Sigma) (Bos taurus (Bovine))
Assay: Xanthine oxidase inhibitory activity
Format: biochemical
Conditions: 100 μM xanthine final, absorbance at 290 nm
Protocol: (1) Preparation of Test Compounds Test compounds were dissolved in DMSO (Wako) at 40 mM concentration and then diluted to intended concentrations with phosphate-buffered saline (PBS). (2) Method for Measurement Xanthine oxidase (from bovine milk, Sigma) was prepared with phosphate-buffered saline (PBS) at 0.02 units/mL, and then the solution was added to 96 well plates at 50 μL/well. […] Absorbance at 290 nm was measured using a microplate reader SpectraMax Plus 384 (Molecular device). […]
Measurement Type: IC50 (µM)

Reference set (5 entries):
>  <Compound>
CCc1c(-c2ccccc2)c(C#N)cn1-c1ccc(C(=O)O)c(O)c1 [Example 327]

>  <IC50 [µM]>
0.0071

$$$$
>  <Compound>
N#Cc1cn(-c2ccc(C(=O)O)c(O)c2)cc1-c1cc2ccccc2s1 [Example 289]

>  <IC50 [µM]>
0.0226

$$$$
>  <Compound>
O=C(O)c1ccc(-n2ccc([N+](=O)[O-])c2)cc1O [Example 351]

>  <IC50 [µM]>
0.0147

$$$$
>  <Compound>
N#Cc1cn(-c2ccc(C(=O)O)c(O)c2)cc1-c1ccccc1Cl [Example 308]

>  <IC50 [µM]>
0.0075

$$$$
>  <Compound>
N#Cc1cn(-c2ccc(C(=O)O)c(O)c2)cc1C(F)(F)F [Example 300]

>  <IC50 [µM]>
0.0079

$$$$

a. N#Cc1cn(-c2ccc(C(=O)O)c(O)c2)cc1C(=O)O [Example 299]
b. N#Cc1cn(-c2ccc(C(=O)O)c(O)c2)cc1-c1cccc(C(F)(F)F)c1 [Example 281]
Hi, I'm comparing a with b and wondering which one has the bigger number for IC50. Any idea? # answer = label of selected item
b
(b: 0.0412 µM, a: 0.0079 µM)

I. COc1cccc(-c2cn(-c3cc(C(=O)O)ccn3)cc2C#N)c1 [Example 367]
II. N#Cc1cn(-c2ccc(C(=O)O)c(O)c2)cc1-c1ccc2c(c1)OCO2 [Example 321]
Which entry has a larger number for IC50, I or II ? Identify your pick by its label.
I

###

Target: Xanthine oxidase (from bovine milk, Sigma) (Bos taurus (Bovine), UniProt P80457)
Test: Xanthine oxidase inhibitory activity
Format: biochemical
Settings: 0.02 units/mL, xanthine 200 μM, 10 minutes at room temperature, absorbance at 290 nm
Procedure: (1) Preparation of Test Compounds Test compounds were dissolved in DMSO (Wako) at 40 mM concentration and then diluted to intended concentrations with phosphate-buffered saline (PBS). (2) Method for Measurement Xanthine oxidase (from bovine milk, Sigma) was prepared with phosphate-buffered saline (PBS) at 0.02 units/mL, and then the solution was added to 96 well plates at 50 μL/well. […] Absorbance at 290 nm was measured using a microplate reader SpectraMax Plus 384 (Molecular device). […]
pIC50: −log10 of the molar value.
Measurement Type: pIC50

These recorded examples may help you get a feel for the data.
>  <Compound Smiles>
N#Cc1cn(-c2ccc(C(=O)O)cc2)cc1-c1cccc(O)c1

>  <Measurement Target>
Xanthine oxidase (from bovine milk, Sigma) (Bos taurus (Bovine), UniProt P80457)

>  <pIC50>
8.68

$$$$
>  <Compound Smiles>
N#Cc1cn(-c2ccc(C(=O)O)cc2)cc1-c1cccc(C(=O)O)c1

>  <Measurement Target>
Xanthine oxidase (from bovine milk, Sigma) (Bos taurus (Bovine), UniProt P80457)

>  <pIC50>
8.30

$$$$
>  <Compound Smiles>
CC(C)n1cc(-c2cn(-c3ccc(C(=O)O)cc3)cc2C#N)c2ccccc21

>  <Measurement Target>
Xanthine oxidase (from bovine milk, Sigma) (Bos taurus (Bovine), UniProt P80457)

>  <pIC50>
7.48

$$$$
>  <Compound Smiles>
CCCCCCc1cn(-c2ccc(C(=O)O)cc2)cc1C#N

>  <Measurement Target>
Xanthine oxidase (from bovine milk, Sigma) (Bos taurus (Bovine), UniProt P80457)

>  <pIC50>
8.05

$$$$
>  <Compound Smiles>
CNC(=O)c1cn(-c2ccc(C(=O)O)cc2)cc1C#N

>  <Measurement Target>
Xanthine oxidase (from bovine milk, Sigma) (Bos taurus (Bovine), UniProt P80457)

>  <pIC50>
8.14

$$$$

1. N#Cc1cn(-c2ccc(C(=O)O)cc2)cc1-c1cccc(Oc2ccccc2)c1
2. N#Cc1cn(-c2ccc(C(=O)O)cc2)cc1-c1cccc(-c2ccccc2)c1
3. COCOc1ccc(-c2cn(-c3ccc(C(=O)O)cc3)cc2C#N)cc1
4. N#Cc1cn(-c2ccc(O)c(C(=O)O)c2)cc1-c1ccccc1
Returns the items ordered by pIC50, from maximum to minimum. // respond by listing labels in the order requested
3, 1, 2, 4
(3: 8.31, 1: 7.49, 2: 7.26, 4: 6.92)
